# target system: Ku70/80 (Homo sapiens, UniProt P12956+P13010)
# Sequence (P12956 whole entry): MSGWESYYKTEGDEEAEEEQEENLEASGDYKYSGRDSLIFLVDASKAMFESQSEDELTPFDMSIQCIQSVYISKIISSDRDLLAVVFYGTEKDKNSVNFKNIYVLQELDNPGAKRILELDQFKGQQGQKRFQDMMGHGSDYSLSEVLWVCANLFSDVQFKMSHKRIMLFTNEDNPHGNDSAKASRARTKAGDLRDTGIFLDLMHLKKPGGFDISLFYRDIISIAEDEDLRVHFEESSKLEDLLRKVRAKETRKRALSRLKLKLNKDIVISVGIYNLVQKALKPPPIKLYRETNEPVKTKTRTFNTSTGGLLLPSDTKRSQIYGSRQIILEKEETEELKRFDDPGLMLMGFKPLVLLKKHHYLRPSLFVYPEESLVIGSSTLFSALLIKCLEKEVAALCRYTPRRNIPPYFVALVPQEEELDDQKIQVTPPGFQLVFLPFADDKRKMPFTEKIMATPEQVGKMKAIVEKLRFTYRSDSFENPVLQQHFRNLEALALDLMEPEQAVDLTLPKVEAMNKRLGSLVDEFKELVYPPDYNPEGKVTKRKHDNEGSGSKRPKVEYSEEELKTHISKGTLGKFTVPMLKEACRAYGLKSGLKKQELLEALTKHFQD
# Sequence (P13010 whole entry): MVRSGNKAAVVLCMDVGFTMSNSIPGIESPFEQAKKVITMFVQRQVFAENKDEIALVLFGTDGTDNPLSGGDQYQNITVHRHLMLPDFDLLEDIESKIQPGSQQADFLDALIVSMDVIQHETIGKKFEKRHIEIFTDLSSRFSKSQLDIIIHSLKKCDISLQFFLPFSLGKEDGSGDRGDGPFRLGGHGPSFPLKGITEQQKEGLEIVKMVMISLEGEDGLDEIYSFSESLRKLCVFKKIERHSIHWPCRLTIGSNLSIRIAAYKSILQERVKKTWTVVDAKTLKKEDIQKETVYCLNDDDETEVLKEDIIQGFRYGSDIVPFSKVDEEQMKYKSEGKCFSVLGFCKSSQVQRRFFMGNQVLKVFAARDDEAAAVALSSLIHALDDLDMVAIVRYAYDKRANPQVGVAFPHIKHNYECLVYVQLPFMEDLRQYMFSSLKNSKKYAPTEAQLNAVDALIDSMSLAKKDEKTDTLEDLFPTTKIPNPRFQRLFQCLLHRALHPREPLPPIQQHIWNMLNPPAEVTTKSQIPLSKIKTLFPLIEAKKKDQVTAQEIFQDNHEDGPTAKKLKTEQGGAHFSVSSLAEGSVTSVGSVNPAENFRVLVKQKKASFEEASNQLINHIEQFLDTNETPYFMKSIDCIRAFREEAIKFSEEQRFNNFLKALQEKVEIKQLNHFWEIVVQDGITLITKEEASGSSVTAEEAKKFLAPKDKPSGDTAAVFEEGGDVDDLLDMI
# assay: Ku–DNA binding EMSA
# condition parameters: Ku70/80 (IC50), purified Ku70/80, direct DNA binding activity by EMSA
pIC50: −log10 of the molar value.
parameter: pIC50

Recorded pIC50, per entry:
- compound: "O=C(O)c1cccc(N2N=C(C(F)(F)F)C(Cc3ccc(-c4ccc(Cl)c(C(=O)NCC5CC5)c4)o3)C2=O)c1 (stereo not shown)"
  pIC50: 4.85
- compound: "COc1cccc(NC(=O)c2cc(-c3ccc(/C=C4\\C(=O)N(c5cccc(-c6nnn[nH]6)c5)N=C4C)o3)ccc2Cl)c1"
  pIC50: 5.45
- compound: "CC1=NN(c2cccc(C(=O)O)c2)C(=O)/C1=C\\c1ccc(-c2ccc(Cl)c(C(=O)NCc3ccccc3Cl)c2)o1"
  pIC50: 5.45

I. CC1=NN(c2ccc(S(N)(=O)=O)cc2)C(=O)/C1=C\c1ccc(-c2ccc(Cl)c(C(=O)NCc3ccc(F)cc3)c2)o1
II. COc1ccc(NC(=O)c2cc(-c3ccc(CC4C(=O)N(c5cccc(C(=O)O)c5)N=C4C)o3)ccc2Cl)cc1OC (stereo not shown)
III. COc1cccc(NC(=O)c2cc(-c3ccc(CC4C(=O)N(c5cccc(C(=O)O)c5)N=C4C)s3)ccc2Cl)c1 (stereo not shown)
Order each entry by recorded pIC50, climbing from the minimum. Hello, could you send the labels back in the order asked? Thank you.
I, II, III

* * *

# target system: Ku70/80 (Homo sapiens, UniProt P12956+P13010)
# assay: Ku–DNA binding EMSA
# condition parameters: Ku70/80 (IC50), purified Ku70/80, direct DNA binding activity by EMSA
pIC50: −log10 of the molar value.
parameter: pIC50

- smi: "O=C(O)c1cccc(N2N=C(C(F)(F)F)/C(=C/c3ccc(-c4ccc(Cl)c(C(=O)NCC5CC5)c4)o3)C2=O)c1"
  pIC50: 4.94

1. COc1cccc(NC(=O)c2cc(-c3ccc(/C=C4\C(=O)N(c5ccc(S(N)(=O)=O)cc5)N=C4C)o3)ccc2Cl)c1
2. CC1=NN(c2cccc(C(=O)O)c2)C(=O)/C1=C\c1ccc(-c2ccc(Cl)c(C(=O)NCC3CCCCC3)c2)o1
I'm curious whether 1 or 2 has the smaller pIC50 number. Which is it? Give the chosen item's label as your response.
2
(2: 4.65, 1: 4.95)

a. COc1cccc(NC(=O)c2cc(-c3ccc(/C=C4\C(=O)N(c5cccc(C(=O)O)c5)N=C4C)[nH]3)ccc2Cl)c1
b. O=C(O)c1cccc(N2N=C(C(F)(F)F)/C(=C/c3ccc(-c4ccc(Cl)c(C(=O)O)c4)o3)C2=O)c1
Lab notebook, comparison: a versus b , higher pIC50 goes to which? Give the chosen item's label as your response.
a

* * *

# target system: DNA-PK (Homo sapiens, UniProt P12956+P13010)
# assay: DNA-PK phosphoryl-transferase catalytic
# Format: biochemical
pIC50: −log10 of the molar value.
parameter: pIC50

- compound: "CC1=NN(c2cccc(C(=O)O)c2)C(=O)/C1=C\\c1ccc(-c2ccc(Cl)c(C(=O)NCc3ccccc3Cl)c2)o1"
  target system: "DNA-PK (Homo sapiens, UniProt P12956+P13010)"
  parameter: "pIC50"
  measurement: 5.76

I. COc1cccc(NC(=O)c2cc(-c3ccc(CC4C(=O)N(c5ccc(S(N)(=O)=O)cc5)N=C4C)o3)ccc2Cl)c1 (stereo not shown)
II. COc1cccc(NC(=O)c2cc(-c3ccc(/C=C4\C(=O)N(c5cccc(-c6nnn[nH]6)c5)N=C4C)o3)ccc2Cl)c1
Lab notebook, comparison: I versus II , higher pIC50 goes to which? Give the chosen item's label as your response.
I
(I: 6.24, II: 6.01)

Attribution: paper PMC12452633
